# assay info: amyloid nucleation score (Sup35N fusion, yeast selection) (log enrichment); library NNK2; higher = more nucleation; inactive = no reads after selection;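 further: zero at mode of non-aggregating sequences after 7 days selection at 30°C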
parameter measured: amyloid nucleation score

[[record]]
substance = "LATKMSRGYSIRDWS"
result = 0.052


// batch mode: one amyloid nucleation score value per listed entry
1. CMWGVDQPCLTTLTEAVLKP
2. ALIGLWVGKPFPGGMLVLFM

Output:
1. 1.96
2. 0.24

----------
# assay info: amyloid nucleation score (Sup35N fusion, yeast selection) (log enrichment); library NNK2; higher = more nucleation; inactive = no reads after selection
parameter measured: amyloid nucleation score

[[record]]
entry_sequence = "YMYFVFIRSSKSVMIKDVHC"
result = "inactive"

[[record]]
entry_sequence = "IWFGVYIYFVDFRVILNRLL"
result = "inactive"

[[record]]
entry_sequence = "TFNVPKMESVRPPG"
result = 0.796


Recorded values, source the supplement of paper PMC12042874.
